# experiment: protein stability index of a GFP-peptide fusion (GPS, HEK-293T) (PSI 1-6); higher = more stable;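 note: 24-mer peptide tiles fused after GFP, lentivirally expressed, FACS-sorted into six equal bins by GFP/DsRed ratio, decoded by Illumina sequencing, PSI is the read-weighted mean bin number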
# measurement.parameters: treatment: DMSO; c terminus: a fixed tail appended
Outcome label depends on protein stability index relative to 4: at/above gives 1 (yes), below gives 0 (no).

protein stability index >= 4 for PQHAADTPKSGEPRVPEEAAQDRP [YJU2B] ?
1 (yes)

protein stability index >= 4 for LTCDSSTSSSDDDEEVSGSSKTIT [C18orf25] ?
1 (yes)

protein stability index >= 4 for KLFESVECYDPRTQQWTAICPLKE [GAN] ?
0 (no)

protein stability index >= 4 for GKLLLRLPSLRTVSSSVIEQLFFV [NR2F2] ?
0 (no)

protein stability index >= 4 for LTLYNPTGTALRFRVLCTAPAKYT [MOSPD3] ?
0 (no)

protein stability index >= 4 for VLLNSLQQYRQDQRDGSKSEDELD [CCND2] ?
1 (yes)

protein stability index >= 4 for VDPDNVVLCLLAADEDDDRDVALQ [GADD45A] ?
1 (yes)

protein stability index >= 4 for HTFAGDDCQAGLNFADEDEAQAFR [WAS] ?
1 (yes)

protein stability index >= 4 for MDHIRIFQEQVEKLKALHVDSAEY [NR2F2] ?
0 (no)

protein stability index >= 4 for NARRKLKGAILTTMLATRNFSAAK [CAMK2B] ?
0 (no)

protein stability index >= 4 for SGETWNPLKLHYQLRNVRERLAKN [GOLPH3] ?
0 (no)

protein stability index >= 4 for GRDRNLAPDEKRSNVRWDHESVCK [LUC7L3] ?
1 (yes)

protein stability index >= 4 for QYAIISEAWRLVEEGIVSPSDLDL [CRYL1] ?
0 (no)

protein stability index >= 4 for MCRLEELGLAGRCLTLTPRPATEA [HDAC6] ?
0 (no)

protein stability index >= 4 for MCQRLRSMQYNGSYFDRGAKGGSR [DFFB] ?
0 (no)

protein stability index >= 4 for QDFLLFSPEVESLPVASSSTLLPL [NFE2L1] ?
0 (no)

protein stability index >= 4 for GTLCIGAAAFSQCEEWSFFHAYYY [KCNK9] ?
0 (no)

protein stability index >= 4 for EDPDYYGQEIWSREPYYARPEPEL [CPXM2] ?
1 (yes)

protein stability index >= 4 for KLLDHDNVKYLKKILDELEKVLDQ [GDAP1] ?
0 (no)

protein stability index >= 4 for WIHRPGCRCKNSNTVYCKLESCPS [SPRY1] ?
0 (no)

protein stability index >= 4 for PLTSVCYPQDLPRPLRSREFPQFE [TRAF3IP2] ?
0 (no)

protein stability index >= 4 for TELLAKITNTDVDCLKACQEQIEA [CCND2] ?
1 (yes)

protein stability index >= 4 for EVYYAKKKRRAQQAPPQDSSNKKE [DYRK1B] ?
1 (yes)

protein stability index >= 4 for NLTSNEGHSLKNLEHRLNEMERTQ [RASAL3] ?
1 (yes)

protein stability index >= 4 for AYEYEREGLYEQAFQLLRRFVQAE [TRADD] ?
0 (no)

protein stability index >= 4 for AGEAHMAADGETNGSCENSDASSH [EHMT1] ?
1 (yes)

protein stability index >= 4 for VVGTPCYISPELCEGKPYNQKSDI [NEK8] ?
0 (no)
